Molecular target: Beta-lactamase (Pseudomonas aeruginosa)
Assay: Inhibition of Pseudomonas aeruginosa beta-lactamase IMP-1 expressed in Escherichia coli BL21(DE3) at 100 uM using CENTA as chromogenic substrate
readoutType: inhibition (%)

Incoming: What value of measured inhibition is listed for O=C(O)CCCc1nnc(S)[nH]1 ?
Outgoing: 5

P: O=C(c1ccccc1)c1ccc(-c2nnc(S)[nH]2)cc1
Q: O=C(O)CCc1nnc(S)[nH]1
R: O=C(O)c1ccccc1-c1nnc(S)[nH]1
Incoming: Reorder: inhibition, max to min. Response field: labels, in requested order.
Outgoing: P, Q, R

###

Target: Beta-lactamase (Pseudomonas aeruginosa) (UniProt Q79MP6)
Sequence (Q79MP6 19-246 limits assumed): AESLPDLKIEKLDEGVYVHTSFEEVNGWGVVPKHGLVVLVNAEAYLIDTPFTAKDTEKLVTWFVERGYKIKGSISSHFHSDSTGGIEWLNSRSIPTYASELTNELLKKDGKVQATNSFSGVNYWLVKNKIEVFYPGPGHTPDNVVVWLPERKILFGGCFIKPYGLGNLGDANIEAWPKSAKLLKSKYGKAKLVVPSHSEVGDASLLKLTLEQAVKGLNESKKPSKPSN
Test: Inhibition of Pseudomonas aeruginosa beta-lactamase IMP-1 expressed in Escherichia coli BL21(DE3) at 10 uM using CENTA as chromogenic substrate
readoutType: inhibition (%)

Incoming: What value of measured inhibition is listed for NC(=S)NNC(=O)c1cccc([N+](=O)[O-])c1 ?
Outgoing: 30

1: O=C(O)CCCc1nnc(S)[nH]1
2: NC(=S)NNC(=O)CCCC(=O)O
Incoming: Param metric = inhibition; output whichever of 1 , 2 has the minimum value. Please identify the chosen entry by its label.
Outgoing: 1
(1: 0%, 2: 8%)

###

Target: Beta-lactamase (Pseudomonas aeruginosa) (UniProt Q79MP6)
Assay: Uncompetitive inhibition of Pseudomonas aeruginosa beta-lactamase IMP-1 assessed as formation of 4-nitrothiophenolate at pH 7 using CENTA as chromogenic substrate
readoutType: Kiuc (µM)

Some compounds with known Kiuc results, for comparison:
Incoming: Please state recorded Kiuc (tested on Beta-lactamase (Pseudomonas aeruginosa) (UniProt Q79MP6)) of O=C(c1ccccc1)c1ccc(-c2nnc(S)[nH]2)cc1
Outgoing: 56

Incoming: Repeat with NC(=S)NNC(=O)c1ccc(C(=O)c2ccccc2)cc1
Outgoing: 26

Incoming: Repeat with NC(=S)NNC(=O)c1ccc(Cc2ccccc2)cc1
Outgoing: 37

Incoming: Repeat with NC(S)=NNC(=O)c1ccccc1
Outgoing: 30

Incoming: Repeat with NC(=S)NNC(=O)c1ccc(C(=O)c2cccc([N+](=O)[O-])c2)cc1
Outgoing: 15

A: Cc1ccc(C(=O)c2ccc(C(=O)NNC(N)=S)cc2)cc1
B: NC(=S)NNC(=O)c1ccc(C(=O)c2ccccc2Cl)cc1
Incoming: Param metric = Kiuc; output whichever of A , B has the minimum value. Please identify the chosen entry by its label.
Outgoing: B

###

Target: Beta-lactamase (Pseudomonas aeruginosa) (UniProt Q79MP6)
Experiment: Inhibition of Pseudomonas aeruginosa beta-lactamase IMP-1 expressed in Escherichia coli BL21(DE3) at 1000 uM using CENTA as chromogenic substrate
readoutType: inhibition (%)

Some compounds with known inhibition results, for comparison:
Incoming: What value of measured inhibition is listed for FC(F)(F)c1nnc(S)[nH]1 ?
Outgoing: 45

Incoming: Repeat with Sc1n[nH]c(-c2ccccc2)n1
Outgoing: 0

Incoming: Repeat with Cn1c(S)nnc1C(F)(F)F
Outgoing: 51

Incoming: Repeat with CCc1nnc(S)[nH]1
Outgoing: 32

Incoming: Repeat with Cc1nnc[nH]1
Outgoing: 0

P: Cc1nnc(S)[nH]1
Q: CSc1nnc(C(C)(C)C)[nH]1
Incoming: Which has the higher inhibition, P or Q ? Please identify the chosen entry by its label.
Outgoing: P
(P: 33%, Q: 10%)

###

Biological target: Beta-lactamase (Pseudomonas aeruginosa) (UniProt Q79MP6)
Assay: Inhibition of Pseudomonas aeruginosa beta-lactamase IMP-1 expressed in Escherichia coli BL21(DE3) at 10 uM using CENTA as chromogenic substrate
readoutType: inhibition (%)

1: O=C(O)CCc1nnc(S)[nH]1
2: O=C(O)c1ccccc1-c1nnc(S)[nH]1
3: NC(=S)NNC(=O)c1ccc(C(=O)c2cccc([N+](=O)[O-])c2)cc1
4: NC(=S)NNC(=O)c1ccc(Cc2ccccc2)cc1
Incoming: Which order do the items above take when sorted by inhibition from high to low? Response field: labels, in requested order.
Outgoing: 3, 4, 1, 2

1: NC(=S)NNC(=O)CCC(=O)O
2: CC(C)(C)C(=O)NNC(N)=S
Incoming: Which has the higher inhibition, 1 or 2 ? Please identify the chosen entry by its label.
Outgoing: 1
